# assayed_target: HLA-A*11:01
# measurement_protocol: IEDB peptide-MHC binding, purified MHC/competitive/radioactivity; filed as Kd, often an IC50 or EC50 that approximates it; bounds were set here for any values at or beyond the usual limits of such assays
# measurement_setup: source organism: Dengue virus 4 Philippines/H241/1956
property_name: Kd (nM)
Write down the numeric answer in nM and omit the unit.

Worked examples, 2 sequences total:
{"seq_string": "VASAGISYK", "recorded_result": 37.4}
{"seq_string": "MVTFKVPHAK", "recorded_result": 251}

Next:
Query: Form field: reported Kd of "GLSSRATWAK"
Reply: 164

----------
# assayed_target: HLA-A*68:02
# measurement_protocol: IEDB peptide-MHC binding, purified MHC/direct/fluorescence; filed as Kd, often an IC50 or EC50 that approximates it; bounds were set here for any values at or beyond the usual limits of such assays
# measurement_setup: source organism: Marburg virus - Musoke, Kenya, 1980
property_name: Kd

{"seq_string": "ARHGEYAPF", "Kd": "≥ 20 µM"}

Next:
Query: Kd; subject: "NQQVTNSKY"
Reply: ≥ 20 µM
